target: T1, human NGF (human, UniProt P01138 122-241)
T1 construct: also called human Nerve Growth Factor; hN
T1 chain: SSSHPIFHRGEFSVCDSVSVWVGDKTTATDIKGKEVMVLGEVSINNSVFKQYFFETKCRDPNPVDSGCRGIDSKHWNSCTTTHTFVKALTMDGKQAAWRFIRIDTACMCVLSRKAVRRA
experiment-summary: SPR (Biacore T200), 100 nM mAb on NGF chip, similarity to parent mAb
Text: The region of an antibody responsible for antigen recognition represents the paratope. A paratope is created by a combination of amino acids in the complementarity determining regions (CDRs) of both the heavy and light chain variable regions. The binding between antibody and antigen is often mediated by side chains of CDR residues with side chains or carbohydrate moieties of the antigen. […]
measured-parameter: Percent Similarity Score (KD on hN) (%)
Give bare numbers, in %.

binder	Percent Similarity Score (KD on hN) / %
can48L2VL_D30A (antibody, V domains shown, CDR scanning mutant of ZTS-842 (48L2)) VH: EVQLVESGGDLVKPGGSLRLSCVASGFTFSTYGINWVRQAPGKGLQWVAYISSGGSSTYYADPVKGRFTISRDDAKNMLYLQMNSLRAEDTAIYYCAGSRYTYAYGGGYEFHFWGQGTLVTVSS VL: QAVLNQPASVSGALGQKVTISCSGSTMDIAIFGVSWYQQLPGKAPKLLVDSDGDRPSGIPDRFSGSRSGNSGTLTITGLQAEDEADYHCQSGDSTLGALAIFGGGTHVTVL	99.7
can48L2VL_S91A (antibody, V domains shown, CDR scanning mutant of ZTS-842 (48L2)) VH: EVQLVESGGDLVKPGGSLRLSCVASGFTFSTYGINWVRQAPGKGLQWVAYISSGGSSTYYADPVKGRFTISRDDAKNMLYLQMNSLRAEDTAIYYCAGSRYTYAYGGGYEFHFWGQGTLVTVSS VL: QAVLNQPASVSGALGQKVTISCSGSTMDIDIFGVSWYQQLPGKAPKLLVDSDGDRPSGIPDRFSGSRSGNSGTLTITGLQAEDEADYHCQAGDSTLGALAIFGGGTHVTVL	97.5

**Query** Please give the documented Percent Similarity Score (KD on hN) of can48L2VH_H112A (antibody, V domains shown, CDR scanning mutant of ZTS-842 (48L2)) VH: EVQLVESGGDLVKPGGSLRLSCVASGFTFSTYGINWVRQAPGKGLQWVAYISSGGSSTYYADPVKGRFTISRDDAKNMLYLQMNSLRAEDTAIYYCAGSRYTYAYGGGYEFAFWGQGTLVTVSS VL: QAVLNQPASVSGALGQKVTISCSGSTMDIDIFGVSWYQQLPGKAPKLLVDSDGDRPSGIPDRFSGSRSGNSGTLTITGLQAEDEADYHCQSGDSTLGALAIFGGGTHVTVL
**Result** 51.2
